Assignment: determine reported abundance fitness for the given variants.
B1: Arginine-glutamic acid dipeptide repeats protein, residues 502 to 543; numbered along this chain, Q9P2R6 (parent)
chain: LKGYACRHCFTTTSKDWHHGGRENILLCTDCRIHFKKYGELP

- Variants of: B1
- MEASUREMENT_DESCRIPTION: abundance fitness (aPCA) (normalised: wild type 0, dead -1); higher = more abundant; growth selection in yeast, the domain comes from the species named
- CONDITION_DETAILS: Homo sapiens
Give bare numbers.

Observe how each entry below is paired with its result.
INSERT INTO results (variant_descriptor, measured_endpoint, value_reported) VALUES
  ('H18Y', 'abundance fitness', -0.089),
  ('K37N', 'abundance fitness', -0.09);

Switching to the query record.
Quick one: abundance fitness for K37M ?
-0.089
